Cited source for all entries: patent US20200055939A1

Biological target: T1, MICA*008 on MEL-JUSO cells (human, UniProt Q29983 24-317)
T1 chain: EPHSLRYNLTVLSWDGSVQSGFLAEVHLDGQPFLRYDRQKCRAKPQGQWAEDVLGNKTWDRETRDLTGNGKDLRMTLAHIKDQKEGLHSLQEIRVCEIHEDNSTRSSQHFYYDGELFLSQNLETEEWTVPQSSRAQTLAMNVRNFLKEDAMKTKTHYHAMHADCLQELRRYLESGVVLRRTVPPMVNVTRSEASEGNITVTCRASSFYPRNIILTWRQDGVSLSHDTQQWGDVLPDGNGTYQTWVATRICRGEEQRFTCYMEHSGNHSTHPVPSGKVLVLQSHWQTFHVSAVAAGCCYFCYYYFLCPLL
Assay: cell-based or functional assay
Could you label it true if measured % Inhibition is 60% or higher, and false otherwise?

Before answering, review these 4 worked examples.
15F11v6 (antibody, IgG1, V domains shown, humanized variant of 15F11) VH: EIQLVQSGAEVKKPGSSVKVSCKPSGYAFTSNNIYWVRQAPGQGLEWIGYIDPYIGRIIYNQQFKDRATLTVDKSTSTAYMELSSLRSEDTAVYYCSRSGERSNFDYWGQGTLVTVSS VL: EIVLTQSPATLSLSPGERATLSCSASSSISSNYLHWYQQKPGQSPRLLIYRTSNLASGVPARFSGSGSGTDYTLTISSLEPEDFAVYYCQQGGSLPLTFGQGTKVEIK ... false
1D5v17 (antibody, IgG1, V domains shown, humanized variant of 1D5) VH: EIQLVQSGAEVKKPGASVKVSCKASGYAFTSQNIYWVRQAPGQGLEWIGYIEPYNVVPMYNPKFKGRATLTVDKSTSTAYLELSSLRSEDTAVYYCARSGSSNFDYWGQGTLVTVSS VL: DIQMTQSPSSLSASVGDRVTITCSASSSISSHYLHWYQQKPGKSPKLLIYRTSNLASGVPSRFSGSGSGTDYTLTISSLQPEDFATYYCQQGSSLPLTFGQGTKVEIK ... true
15F11 (antibody, V domains shown, mouse variable domains) VH: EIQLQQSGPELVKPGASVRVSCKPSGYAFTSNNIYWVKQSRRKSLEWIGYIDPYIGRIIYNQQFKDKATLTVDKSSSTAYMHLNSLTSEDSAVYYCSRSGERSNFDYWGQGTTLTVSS VL: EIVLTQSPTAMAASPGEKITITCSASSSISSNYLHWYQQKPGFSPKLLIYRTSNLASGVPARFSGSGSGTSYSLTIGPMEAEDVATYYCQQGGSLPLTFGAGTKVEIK ... false
1D5v24 (antibody, IgG1, V domains shown, humanized variant of 1D5) VH: EVQLVQSGAEVKKPGASVKVSCKASGYAFTSQNIYWVRQAPGQGLEWIGYIEPYNVVPMYNPKFKGRVTITVDKSTSTAYLELSSLRSEDTAVYYCARSGSSNFDYWGQGTLVTVSS VL: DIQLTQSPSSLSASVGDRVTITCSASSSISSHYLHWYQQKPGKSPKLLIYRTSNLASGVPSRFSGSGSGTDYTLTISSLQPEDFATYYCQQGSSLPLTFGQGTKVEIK ... true

# next binder below
Request: Check this binder for % Inhibition at or above 60%: 1D5v15 (antibody, IgG1, V domains shown, humanized variant of 1D5) VH: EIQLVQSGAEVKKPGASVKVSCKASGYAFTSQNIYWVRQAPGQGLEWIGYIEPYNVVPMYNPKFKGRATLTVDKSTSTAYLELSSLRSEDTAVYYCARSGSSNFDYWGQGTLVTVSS VL: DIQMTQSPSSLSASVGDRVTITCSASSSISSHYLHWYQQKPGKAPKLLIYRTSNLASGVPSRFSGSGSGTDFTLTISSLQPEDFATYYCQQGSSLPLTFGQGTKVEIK
Result: false
